- studySystem: membrane PD-L1 (Homo sapiens, UniProt Q9NZQ7)
- Construct: Alexa Fluor® 647 Rabbit monoclonal Anti-PD-L1 (ab215251); endogenous in cells; host or cells: HT-29, MCF-7, A-549 (A17: MCF-7 only; A14: IFN-gamma-stimulated cancer cells co-cultured with Jurkat T cells)
- protocolDescription: Membrane PD-L1 relative quantification by flow cytometry in cancer cells co-cultured with Jurkat T cells
- Assay type: cell-based
- conditionLabel: Jurkat, 24 h, MCF7 co-cultured with Jurkat T cells, relative to non-treated co-cultures, read-out: % PDL1 (membrane)

| compound | studySystem | unitsOfMeasure | remaining activity at 100 µM |
| --- | --- | --- | --- |
| OCCc1ccc(CCn2cc(-c3cccc(Br)c3)nn2)cc1 [Compound 6] | membrane PD-L1 (Homo sapiens, UniProt Q9NZQ7) | % | 66 |
| COc1ccccc1-c1cn(CCc2ccc(CCO)cc2)nn1 [Compound 14] | membrane PD-L1 (Homo sapiens, UniProt Q9NZQ7) | % | 80 |
| COc1ccc(C(OCCc2ccc(CCn3cc(-c4ccccc4)nn3)cc2)(c2ccccc2)c2ccc(OC)cc2)cc1 [Compound 1] | membrane PD-L1 (Homo sapiens, UniProt Q9NZQ7) | % | 109 |
| OCCc1ccc(CCn2cc(-c3ccccc3Br)nn2)cc1 [Compound 8] | membrane PD-L1 (Homo sapiens, UniProt Q9NZQ7) | % | 46 |
| COc1ccc(C(OCCc2ccc(CCn3cc(-c4cccc(Br)c4)nn3)cc2)(c2ccccc2)c2ccc(OC)cc2)cc1 [Compound 5] | membrane PD-L1 (Homo sapiens, UniProt Q9NZQ7) | % | 43 |
| COc1ccc(C(OCCc2ccc(CCn3cc(-c4ccccc4OC)nn3)cc2)(c2ccccc2)c2ccc(OC)cc2)cc1 [Compound 13] | membrane PD-L1 (Homo sapiens, UniProt Q9NZQ7) | % | 33 |
| COc1ccc(-c2cn(CCc3ccc(CCOC(c4ccccc4)(c4ccc(OC)cc4)c4ccc(OC)cc4)cc3)nn2)cc1 [Compound 9] | membrane PD-L1 (Homo sapiens, UniProt Q9NZQ7) | % | 40 |
| COc1ccc(C(OCCc2ccc(CCn3cc(-c4ccc(Br)cc4)nn3)cc2)(c2ccccc2)c2ccc(OC)cc2)cc1 [Compound 3] | membrane PD-L1 (Homo sapiens, UniProt Q9NZQ7) | % | 52 |
| COc1cccc(-c2cn(CCc3ccc(CCO)cc3)nn2)c1 [Compound 12] | membrane PD-L1 (Homo sapiens, UniProt Q9NZQ7) | % | 41 |
| Cc1c(COc2ccc(CN3CCCCC3C(=O)O)cc2Br)cccc1-c1ccccc1 (stereo not drawn) [BMS-8, reference compound] | membrane PD-L1 (Homo sapiens, UniProt Q9NZQ7) | % | 97 |
| COc1ccc(C(OCCc2ccc(CCn3cc(-c4ccccc4Br)nn3)cc2)(c2ccccc2)c2ccc(OC)cc2)cc1 [Compound 7] | membrane PD-L1 (Homo sapiens, UniProt Q9NZQ7) | % | 50 |
| COc1ccc(C(OCCc2ccc(CCn3cc(-c4cccc(OC)c4)nn3)cc2)(c2ccccc2)c2ccc(OC)cc2)cc1 [Compound 11] | membrane PD-L1 (Homo sapiens, UniProt Q9NZQ7) | % | 48 |
| OCCc1ccc(CCn2cc(-c3ccc(Br)cc3)nn2)cc1 [Compound 4] | membrane PD-L1 (Homo sapiens, UniProt Q9NZQ7) | % | 89 |
| OCCc1ccc(CCn2cc(-c3ccccc3)nn2)cc1 [Compound 2] | membrane PD-L1 (Homo sapiens, UniProt Q9NZQ7) | % | 82 |
| COc1ccc(-c2cn(CCc3ccc(CCO)cc3)nn2)cc1 [Compound 10] | membrane PD-L1 (Homo sapiens, UniProt Q9NZQ7) | % | 48 |

====

- System: membrane VEGFR-2
- protocolDescription: Membrane VEGFR-2 relative quantification by flow cytometry in cancer cells co-cultured with Jurkat T cells
- Type: cell-based, human
- conditionLabel: A549 co-cultured with Jurkat T cells, 100 μM, 24 h, relative to non-treated co-cultures
Measured %VEGFR2 (membrane) of individual entries

| molecule | unitsOfMeasure | %VEGFR2 (membrane) |
| --- | --- | --- |
| COc1ccc(C(OCCc2ccc(CCn3cc(-c4cccc(OC)c4)nn3)cc2)(c2ccccc2)c2ccc(OC)cc2)cc1 | % | 85 |
| COc1cccc(-c2cn(CCc3ccc(CCO)cc3)nn2)c1 | % | 99 |
| COc1ccc(C(OCCc2ccc(CCn3cc(-c4ccccc4OC)nn3)cc2)(c2ccccc2)c2ccc(OC)cc2)cc1 | % | 80 |
| COc1ccc(C(OCCc2ccc(CCn3cc(-c4ccc(Br)cc4)nn3)cc2)(c2ccccc2)c2ccc(OC)cc2)cc1 | % | 73 |
| Cc1c(COc2ccc(CN3CCCCC3C(=O)O)cc2Br)cccc1-c1ccccc1 (centres unmarked) [BMS-8, reference compound] | % | 104 |
| COc1ccc(-c2cn(CCc3ccc(CCO)cc3)nn2)cc1 | % | 107 |
| OCCc1ccc(CCn2cc(-c3ccccc3Br)nn2)cc1 | % | 104 |
| COc1ccc(C(OCCc2ccc(CCn3cc(-c4ccccc4Br)nn3)cc2)(c2ccccc2)c2ccc(OC)cc2)cc1 | % | 89 |

====

- System: c-Myc
- protocolDescription: Total c-Myc relative quantification by flow cytometry in cancer cell lines
- Type: cell-based, human
- conditionLabel: MCF-7, 100 µM, 24 h, relative to negative control (DMSO)

| compound | % c-Myc |
| --- | --- |
| COc1ccc(C(OCCc2ccc(CCn3cc(-c4ccccc4OC)nn3)cc2)(c2ccccc2)c2ccc(OC)cc2)cc1 [Compound 13] | 77 ± 5% |
| OCCc1ccc(CCn2cc(-c3ccccc3)nn2)cc1 [Compound 2] | 122 ± 13% |
| OCCc1ccc(CCn2cc(-c3ccc(Br)cc3)nn2)cc1 [Compound 4] | 91 ± 8% |
| COc1ccc(-c2cn(CCc3ccc(CCO)cc3)nn2)cc1 [Compound 10] | 91 ± 6% |
| COc1ccc(C(OCCc2ccc(CCn3cc(-c4cccc(OC)c4)nn3)cc2)(c2ccccc2)c2ccc(OC)cc2)cc1 [Compound 11] | 81 ± 2% |
| COc1cccc(-c2cn(CCc3ccc(CCO)cc3)nn2)c1 [Compound 12] | 81 ± 4% |
| COc1ccc(-c2cn(CCc3ccc(CCOC(c4ccccc4)(c4ccc(OC)cc4)c4ccc(OC)cc4)cc3)nn2)cc1 [Compound 9] | 88 ± 4% |

====

- studySystem: membrane PD-L1 (Homo sapiens)
- Construct: Alexa Fluor® 647 Rabbit monoclonal Anti-PD-L1 (ab215251); endogenous in cells; host or cells: HT-29, MCF-7, A-549 (A17: MCF-7 only; A14: IFN-gamma-stimulated cancer cells co-cultured with Jurkat T cells)
- protocolDescription: Membrane PD-L1 relative quantification by flow cytometry in cancer cells co-cultured with Jurkat T cells
- Assay type: cell-based
- conditionLabel: Jurkat, 24 h, A549 co-cultured with Jurkat T cells, relative to non-treated co-cultures, read-out: % PDL1 (membrane)

| compoundStructureString | remaining activity at 100 µM [%] |
| --- | --- |
| COc1ccc(-c2cn(CCc3ccc(CCOC(c4ccccc4)(c4ccc(OC)cc4)c4ccc(OC)cc4)cc3)nn2)cc1 | 82 |
| COc1ccc(C(OCCc2ccc(CCn3cc(-c4cccc(OC)c4)nn3)cc2)(c2ccccc2)c2ccc(OC)cc2)cc1 | 94 |
| COc1ccc(C(OCCc2ccc(CCn3cc(-c4cccc(Br)c4)nn3)cc2)(c2ccccc2)c2ccc(OC)cc2)cc1 | 115 |
| COc1ccccc1-c1cn(CCc2ccc(CCO)cc2)nn1 | 85 |
| COc1ccc(C(OCCc2ccc(CCn3cc(-c4ccccc4Br)nn3)cc2)(c2ccccc2)c2ccc(OC)cc2)cc1 | 73 |
| COc1cccc(-c2cn(CCc3ccc(CCO)cc3)nn2)c1 | 77 |

====

- System: MCF-7
- protocolDescription: MCF-7 cell viability in co-culture with THP-1 cells
- Format: cell-based, human
- conditionLabel: Homo sapiens, MCF7, 48 h, 2:1 MCF-7/THP-1, 100 μM, 48 h, control = 100; read-out: cancer cell viability (MCF-7)
attributeMeasured: viability at 100 µM (%)

| compound | unitsOfMeasure | numericReadout |
| --- | --- | --- |
| COc1ccc(C(OCCc2ccc(CCn3cc(-c4ccccc4Br)nn3)cc2)(c2ccccc2)c2ccc(OC)cc2)cc1 | % | 60 |
| Cc1c(COc2ccc(CN3CCCCC3C(=O)O)cc2Br)cccc1-c1ccccc1 (stereo not shown) [BMS-8, reference compound] | % | 58 |
| COc1ccc(C(OCCc2ccc(CCn3cc(-c4ccc(Br)cc4)nn3)cc2)(c2ccccc2)c2ccc(OC)cc2)cc1 | % | 51 |
| COc1ccc(C(OCCc2ccc(CCn3cc(-c4cccc(Br)c4)nn3)cc2)(c2ccccc2)c2ccc(OC)cc2)cc1 | % | 69 |

====

- studySystem: PD-L1 (Homo sapiens, UniProt Q9NZQ7)
- Sequence (Q9NZQ7 19-290): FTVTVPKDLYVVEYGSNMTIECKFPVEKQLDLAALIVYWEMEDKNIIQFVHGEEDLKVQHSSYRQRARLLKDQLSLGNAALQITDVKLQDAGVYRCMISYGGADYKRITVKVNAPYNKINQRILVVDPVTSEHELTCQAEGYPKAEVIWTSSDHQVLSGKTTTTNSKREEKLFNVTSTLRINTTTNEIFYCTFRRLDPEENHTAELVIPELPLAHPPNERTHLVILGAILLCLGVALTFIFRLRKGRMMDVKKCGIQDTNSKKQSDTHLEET
- protocolDescription: Total PD-L1 relative quantification by flow cytometry in cancer cell lines
- Format: cell-based
- Parameters: Alexa Fluor® 647 Rabbit monoclonal Anti-PD-L1 (ab215251); endogenous in cells; host or cells: HT-29
- conditionLabel: HT-29, 100 µM, 24 h, total PD-L1 relative to negative control (DMSO)
Measured remaining activity at 100 µM of individual entries

| molecule | unitsOfMeasure | remaining activity at 100 µM |
| --- | --- | --- |
| OCCc1ccc(CCn2cc(-c3cccc(Br)c3)nn2)cc1 | % | 104 |
| COc1cccc(-c2cn(CCc3ccc(CCO)cc3)nn2)c1 | % | 157 |
| COc1ccc(C(OCCc2ccc(CCn3cc(-c4cccc(OC)c4)nn3)cc2)(c2ccccc2)c2ccc(OC)cc2)cc1 | % | 48 |
| COc1ccc(C(OCCc2ccc(CCn3cc(-c4ccc(Br)cc4)nn3)cc2)(c2ccccc2)c2ccc(OC)cc2)cc1 | % | 47 |
| OCCc1ccc(CCn2cc(-c3ccc(Br)cc3)nn2)cc1 | % | 111 |
| OCCc1ccc(CCn2cc(-c3ccccc3Br)nn2)cc1 | % | 115 |
| COc1ccc(C(OCCc2ccc(CCn3cc(-c4cccc(Br)c4)nn3)cc2)(c2ccccc2)c2ccc(OC)cc2)cc1 | % | 38 |
| COc1ccc(C(OCCc2ccc(CCn3cc(-c4ccccc4Br)nn3)cc2)(c2ccccc2)c2ccc(OC)cc2)cc1 | % | 45 |
| COc1ccccc1-c1cn(CCc2ccc(CCO)cc2)nn1 | % | 138 |
| COc1ccc(-c2cn(CCc3ccc(CCOC(c4ccccc4)(c4ccc(OC)cc4)c4ccc(OC)cc4)cc3)nn2)cc1 | % | 57 |
| COc1ccc(C(OCCc2ccc(CCn3cc(-c4ccccc4)nn3)cc2)(c2ccccc2)c2ccc(OC)cc2)cc1 | % | 85 |
| COc1ccc(-c2cn(CCc3ccc(CCO)cc3)nn2)cc1 | % | 82 |
| OCCc1ccc(CCn2cc(-c3ccccc3)nn2)cc1 | % | 82 |
| Cc1c(COc2ccc(CN3CCCCC3C(=O)O)cc2Br)cccc1-c1ccccc1 (stereo not drawn) [BMS-8, reference compound] | % | 68 |
| COc1ccc(C(OCCc2ccc(CCn3cc(-c4ccccc4OC)nn3)cc2)(c2ccccc2)c2ccc(OC)cc2)cc1 | % | 102 |
